test system: HEK-293T; assay: Multiplex assay against HEK293T; assay type: toxicity, cell-based; settings: human, 24 h, 1 µM, compound concentration 1 uM, replicate 1
Recorded Population Fragmented Nuclei (%) values for a group of molecules are listed next.
The answer is to be given in %; state only the numeric part.

Worked examples, 8 molecules total:
1) Cl.Oc1ccc2c3c1O[C@H]1c4[nH]c5c(c4C[C@@]4(O)[C@@H](C2)N(CC2CC2)CC[C@]314)C[C@@]1(O)[C@H]2Cc3ccc(O)c4c3[C@@]1(CCN2CC1CC1)[C@H]5O4	11
2) Cc1ccc(C(=O)Nc2cccc(C(F)(F)F)c2)cc1Nc1nc(-c2cccnc2)nc2c1cnn2C	14
3) C=CCn1c(=O)c2cnc(Nc3ccc(N4CCN(C)CC4)cc3)nc2n1-c1cccc(C(C)(C)O)n1 [ADAVOSERTIB]	22
4) CCN1CCN(c2ccc(Nc3cc(N(C)C(=O)Nc4c(Cl)c(OC)cc(OC)c4Cl)ncn3)cc2)CC1 [INFIGRATINIB]	16
5) CCOc1cc2ncc(C#N)c(Nc3ccc(OCc4ccccn4)c(Cl)c3)c2cc1NC(=O)/C=C/CN(C)C [NERATINIB]	19
6) COC(=N)c1nc2ccc3ncnc(Nc4ccc(OC)cc4F)c3c2s1	14
7) CCc1cccc(CC)c1NC(=O)c1nn(C)c2c1CCc1cnc(Nc3ccc(C(=O)NC4CCN(C)CC4)cc3OC(F)(F)F)nc1-2	10
8) NC(=O)c1cccc(-c2cc(Nc3ccc(OC(F)(F)F)cc3)ncn2)c1	12

Exercise: # query: Population Fragmented Nuclei (%) of entry Cc1cc(C)c(S(=O)(=O)N(Cc2ccc(-c3cccc(S(C)(=O)=O)c3)cc2)Cc2ccc(C(F)(F)F)o2)c(C)c1
Key: 13

Exercise: And for CCN1CCN(Cc2ccc(Nc3ncc(F)c(-c4cc(F)c5nc(C)n(C(C)C)c5c4)n3)nc2)CC1.CS(=O)(=O)O ?
Key: 19

Exercise: And for C=C1/C(=C\C=C2/CCC[C@]3(C)[C@@H]([C@H](C)/C=C/[C@H](C)C(C)C)CC[C@@H]23)C[C@@H](O)C[C@@H]1O [DOXERCALCIFEROL] ?
Key: 22

Exercise: And for CN1CCN(C(=O)C(C)(C)c2ccc(C(=O)Nc3cn4cc(-c5cc(C(C)(C)C)cc(C(C)(C)C)c5)ccc4n3)cc2)CC1 [T3-CLK-N] ?
Key: 12

Exercise: And for CCn1c(=O)c(-c2ccc(-c3cncs3)cc2Cl)cc2cnc(Nc3ccc(N4CCN(C)CC4)cc3)nc21 ?
Key: 11

Exercise: And for CCOc1cc(C(=O)N2CCC(N3CCN(C)CC3)CC2)ccc1Nc1ncc2c(n1)N(C1CCCC1)c1ccccc1C(=O)N2C ?
Key: 19

Exercise: And for COc1ccc(-c2ccc3c(N4CCOCC4)nc(N4C[C@@H](C)O[C@@H](C)C4)nc3n2)cc1CO [Ku-0063794] ?
Key: 19

Exercise: And for O=C(Nc1ccc(Cl)cc1)Nc1cccc(-c2cccc(N3CCCC3)n2)c1 ?
Key: 9

Exercise: And for CNc1cc(Oc2cc(C(=O)Nc3cc(N4CCN(C)CC4)cc(C(F)(F)F)c3)ccc2C)ncn1 ?
Key: 18

Exercise: And for O=C1N/C(=N/c2ccccc2F)S/C1=C\c1ccc(C(=O)O)cc1 ?
Key: 16

Exercise: And for Cl.O=C(c1ccc(Nc2nccc(-c3cc4ccccc4s3)n2)cc1)N1CCC(N2CCCC2)CC1 ?
Key: 8

Exercise: And for Cl.O=c1c2cccn2c2ccccc2n1CCCN1CCC(c2ccc(Cl)cc2)CC1 ?
Key: 7

Exercise: And for S=C(NCCCc1c[nH]cn1)NCCCN(Cc1ccc(Cl)c(Cl)c1)c1ccc(Br)cn1 ?
Key: 13

Exercise: And for Cc1ccc2nc(NCCN)c3ncc(C)n3c2c1.O=C(O)C(F)(F)F.O=C(O)C(F)(F)F ?
Key: 14

Exercise: And for CN(C)C(=O)C(CCN1CCC(O)(c2ccc(Cl)cc2)CC1)(c1ccccc1)c1ccccc1.Cl [LOPERAMIDE HYDROCHLORIDE] ?
Key: 11

Exercise: And for Cn1nc(C(F)(F)F)cc1-c1cnc(N2CCc3cc(S(=O)(=O)Nc4c(F)cc(Cl)cc4F)cc(N4CCCC4=O)c32)nc1 [TP-020] ?
Key: 10

Data origin, for the record: ChEMBL document CHEMBL4689842
